These entries and their values trace back to patent US12371432B2.

ASSAY: Rat PK evaluation
Type: in vivo
DETAILS: plasma, SD rats, PO 5 mg/kg, n=3, read-out: tz1/2 po (terminal half-life) (converted)
Counter-ions that a name gives are not always drawn.
half-life less than 1 h is yes (1); half-life greater than or equal to 1 h is no (0).

Answered cases to consult:
| COMPOUND | GROUP |
| --- | --- |
| NC/C(=C\F)Cn1cc2c(n1)CCN(C1CC1)C2=O | no (0) |
| Cl.NC/C(=C\F)Cn1cc2c(c1Cl)CCN(C1CC1)C2=O [Compound A42 hydrochloride] | no (0) |
| NC/C(=C\F)Cn1cc2c(=O)n(C3CC3)ccc2n1 | no (0) |

In: Check if half-life falls below 1 h for CCN1CCc2nn(C/C(=C/F)CN)cc2C1=O [Compound A6 hydrochloride] .
Out: no (0)

In: Hi there! Is half-life for Cl.NC/C(=C\F)Cn1cc2c(c1Br)CCN(C1CC1)C2=O [Compound A32 hydrochloride] below 1 h, do you know?
Out: yes (1)

====

Kindly state pIC50 for each of the entries shown.
TARGET_OR_SYSTEM: rhAOC1 (Homo sapiens, UniProt P19801)
Construct: purchased R&D
Sequence (P19801 20-751): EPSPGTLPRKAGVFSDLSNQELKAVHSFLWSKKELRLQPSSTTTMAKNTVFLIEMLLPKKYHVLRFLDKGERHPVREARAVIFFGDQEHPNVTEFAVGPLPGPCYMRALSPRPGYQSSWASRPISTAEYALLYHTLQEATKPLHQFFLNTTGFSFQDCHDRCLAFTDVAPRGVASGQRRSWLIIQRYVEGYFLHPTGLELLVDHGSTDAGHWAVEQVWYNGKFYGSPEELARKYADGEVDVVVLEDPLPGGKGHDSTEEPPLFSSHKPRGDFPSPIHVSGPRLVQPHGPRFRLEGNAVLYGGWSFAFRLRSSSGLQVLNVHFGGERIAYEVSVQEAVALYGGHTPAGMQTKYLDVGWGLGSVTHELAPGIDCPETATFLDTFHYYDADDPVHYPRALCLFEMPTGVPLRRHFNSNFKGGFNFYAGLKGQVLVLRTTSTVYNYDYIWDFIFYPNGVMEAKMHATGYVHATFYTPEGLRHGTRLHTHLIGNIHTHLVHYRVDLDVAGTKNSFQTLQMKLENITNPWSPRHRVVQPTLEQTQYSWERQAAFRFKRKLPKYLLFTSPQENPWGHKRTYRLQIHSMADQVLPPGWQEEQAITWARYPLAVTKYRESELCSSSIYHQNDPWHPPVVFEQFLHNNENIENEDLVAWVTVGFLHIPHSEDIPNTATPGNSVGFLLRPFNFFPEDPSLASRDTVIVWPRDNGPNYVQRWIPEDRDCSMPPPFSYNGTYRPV
ASSAY: Selectivity against rhAOC1 enzyme (Biological Example 2)
Type: biochemical
DETAILS: Table 2; histamine substrate, Amplex Red/HRP
Counter-ions that a name gives are not always drawn.
One number for each entry, as −log10 of the molar value.

| COMPOUND | pIC50 |
| --- | --- |
| CC(C)(C)NC(=O)c1ccn(C/C(=C/F)CN)c1 [Compound B12] | 5.07 |

For each listed entry, give its pIC50.
1. CNC(=O)c1cnn(C/C(=C/F)CN)c1 [Compound B1]
2. Cl.NC/C(=C\F)Cn1cc2c(c1Br)CCN(C1CC1)C2=O [Compound A32 hydrochloride]
3. NC/C(=C\F)Cn1cc(C(=O)NC2CC2)cn1 [Compound B4 hydrochloride]
4. CC(C)(C)N1CCc2nn(C/C(=C/F)CN)cc2C1=O [Compound A7 hydrochloride]
5. CN(C)C(=O)c1cnn(C/C(=C/F)CN)c1 [Compound B29]
6. CCn1ccc2nn(C/C(=C/F)CN)cc2c1=O [Compound A28 hydrochloride]

Out:
[5.50, 4.63, 5.23, 4.30, 4.97, 5.39]

Could you report pIC50 for every entry in the following list?
1. NC/C(=C\F)Cn1cc2c(=O)n(C3CC3)ccc2n1 [Compound A41]
2. CN1CCc2nn(C/C(=C/F)CN)cc2C1=O [Compound A24 hydrochloride]

Out:
[5.02, 5.33]

====

ASSAY: Rat blood-brain barrier evaluation
Type: in vivo
DETAILS: rat, plasma, oral; SD rats, intragastric 10 mg/kg, 6 h; read-out: Average Plasma concentration (N=3)
MEASURED_ATTRIBUTE: concentration at 6 h (µg/mL)
One number for each entry, in µg/mL.

| COMPOUND | UOM | concentration at 6 h |
| --- | --- | --- |
| NC/C(=C\F)Cn1cc2c(=O)n(C3CC3)ccc2n1 [Compound A41] | µg/mL | 0.0397 |
| CC(C)(C)NC(=O)c1ccc(OC/C(=C/F)CN)cc1 [PXS-4728, reference compound] | µg/mL | 0.175 |

Please look at the following compound next.
In: Quick one: concentration at 6 h for NC/C(=C\F)Cn1cc2c(n1)CCN(C1CC1)C2=O [Compound A1] ?
Out: 0.0807

====

ASSAY: Rat blood-brain barrier evaluation
Assay type: in vivo
DETAILS: rat, brain, oral; SD rats, intragastric 10 mg/kg, 6 h; read-out: Average Brain tissue concentration (N=3)
Procedure: (1) Animal Administration and Sampling Method: The study compound A1, the compound A41 and PXS-4728 were dissolved in normal saline to prepare solutions. The prepared solutions were separately administered by intragastric administration to SD rats at a dose of 10 mg/kg. […] At each time point, samples were collected from three SD rats. […]
MEASURED_ATTRIBUTE: concentration at 6 h (ng/g)
Numbers only, in ng/g.

| MOLECULE | UOM | concentration at 6 h |
| --- | --- | --- |
| NC/C(=C\F)Cn1cc2c(n1)CCN(C1CC1)C2=O | ng/g | 31.3 |

Attention now shifts to the item below.
In: What value of concentration at 6 h has been reported for the following molecule? CC(C)(C)NC(=O)c1ccc(OC/C(=C/F)CN)cc1 [PXS-4728, reference compound]
Out: 311

====

ASSAY: Rat blood-brain barrier evaluation
Type: in vivo
DETAILS: rat, brain/plasma, oral; SD rats, intragastric 10 mg/kg, 6 h; read-out: Mean brain tissue/plasma concentration ratio
MEASURED_ATTRIBUTE: Kp at 6 h
Give bare numbers.

| MOLECULE | Kp at 6 h |
| --- | --- |
| CC(C)(C)NC(=O)c1ccc(OC/C(=C/F)CN)cc1 [PXS-4728, reference compound] | 1.89 |

In: Give the measured Kp at 6 h of NC/C(=C\F)Cn1cc2c(n1)CCN(C1CC1)C2=O .
Out: 0.39

====

Assign AUC(0-inf) to each entry below.
ASSAY: Rat PK evaluation
Assay type: in vivo
DETAILS: plasma, SD rats, PO 5 mg/kg, n=3, read-out: AUCinf po (area under plasma concentration-time curve 0-∞)
Counter-ions that a name gives are not always drawn.
Answer format: value, then unit.

| MOLECULE | AUC(0-inf) |
| --- | --- |
| Cl.NC/C(=C\F)Cn1cc2c(c1Br)CCN(C1CC1)C2=O [Compound A32 hydrochloride] | 4950 ng·h/mL |
| NC/C(=C\F)Cn1cc2c(=O)n(C3CC3)ccc2n1 [Compound A41] | 1640 ng·h/mL |
| Cl.NC/C(=C\F)Cn1cc2c(c1Cl)CCN(C1CC1)C2=O [Compound A42 hydrochloride] | 4480 ng·h/mL |
| CCN1CCc2nn(C/C(=C/F)CN)cc2C1=O [Compound A6 hydrochloride] | 1700 ng·h/mL |

For the next question, use this molecule.
In: Give its AUC(0-inf) value. Item: NC/C(=C\F)Cn1cc2c(n1)CCN(C1CC1)C2=O [Compound A1]
Out: 2370 ng·h/mL

====

ASSAY: Rat blood-brain barrier evaluation
Format: in vivo
DETAILS: rat, brain/plasma, oral; SD rats, intragastric 10 mg/kg, 0.167 h; read-out: Mean brain tissue/plasma concentration ratio
MEASURED_ATTRIBUTE: Kp at 0.167 h

In: Recorded Kp at 0.167 h of CC(C)(C)NC(=O)c1ccc(OC/C(=C/F)CN)cc1 [PXS-4728, reference compound] , please.
Out: 0.89

====

I'd appreciate it if you could supply Vd values for the items below.
ASSAY: Rat PK evaluation
Assay type: in vivo
DETAILS: plasma, SD rats, IV 1 mg/kg, n=3, read-out: Vz_obs iv (apparent volume of distribution)
Method: Animal Administration and Sample Collection: The study compounds A1, A6, A32, A41 and A42 were each dissolved in normal saline to prepare solutions. The solutions of the compounds were separately administered to SD rats by intragastric administration at a dose of 5.0 mg/kg. Time points for blood collection were 15 min, 30 min, 1 h, 2 h, 4 h, 6 h, 8 h and 24 h. The study compounds A1, A6, A32, A41 and A42 were each dissolved in normal saline to prepare solutions. […]
Where a name gives a salt, the structure may show the parent alone.
Give bare numbers, in L/kg.

The following compounds have reported results that may help.
| COMPOUND | Vd (L/kg) |
| --- | --- |
| CCN1CCc2nn(C/C(=C/F)CN)cc2C1=O [Compound A6 hydrochloride] | 2.38 |
| NC/C(=C\F)Cn1cc2c(=O)n(C3CC3)ccc2n1 | 1.53 |
| Cl.NC/C(=C\F)Cn1cc2c(c1Br)CCN(C1CC1)C2=O [Compound A32 hydrochloride] | 1.2 |
| NC/C(=C\F)Cn1cc2c(n1)CCN(C1CC1)C2=O | 2.31 |

In: State the recorded Vd for this entry: Cl.NC/C(=C\F)Cn1cc2c(c1Cl)CCN(C1CC1)C2=O [Compound A42 hydrochloride]
Out: 1.29

====

TARGET_OR_SYSTEM: rhVAP-1 (Homo sapiens)
Construct: purchased PeproTech
Sequence (Q16853 27-763 limits assumed): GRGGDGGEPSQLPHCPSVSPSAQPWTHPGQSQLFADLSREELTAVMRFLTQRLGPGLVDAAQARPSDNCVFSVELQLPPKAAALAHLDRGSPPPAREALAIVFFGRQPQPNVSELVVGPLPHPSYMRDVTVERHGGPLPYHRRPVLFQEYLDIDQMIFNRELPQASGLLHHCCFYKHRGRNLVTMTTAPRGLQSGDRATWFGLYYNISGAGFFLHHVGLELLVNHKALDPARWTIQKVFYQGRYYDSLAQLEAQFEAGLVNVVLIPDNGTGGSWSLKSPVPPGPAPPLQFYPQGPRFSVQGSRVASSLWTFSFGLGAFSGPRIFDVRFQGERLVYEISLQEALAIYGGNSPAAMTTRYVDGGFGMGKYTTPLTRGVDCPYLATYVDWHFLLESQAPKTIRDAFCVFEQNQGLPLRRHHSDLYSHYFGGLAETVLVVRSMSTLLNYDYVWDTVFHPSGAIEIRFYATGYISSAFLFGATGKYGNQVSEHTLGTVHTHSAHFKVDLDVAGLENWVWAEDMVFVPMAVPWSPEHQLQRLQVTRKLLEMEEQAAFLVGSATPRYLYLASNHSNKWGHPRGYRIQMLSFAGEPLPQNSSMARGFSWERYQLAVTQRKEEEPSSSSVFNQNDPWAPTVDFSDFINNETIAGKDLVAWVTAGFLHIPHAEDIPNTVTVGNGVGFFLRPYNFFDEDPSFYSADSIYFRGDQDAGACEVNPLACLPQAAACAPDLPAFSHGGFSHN
ASSAY: Inhibitory activity against rhVAP-1 enzyme (Biological Example 1)
Assay type: biochemical
DETAILS: Table 1; benzylamine substrate, Amplex Red/HRP
Where a name gives a salt, the structure may show the parent alone.
For each of the compounds below, state its pIC50.
One number for each entry, as −log10 of the molar value.

Solved cases (2 shown):
| COMPOUND | pIC50 |
| --- | --- |
| NC/C(=C\F)Cn1ccc2cc(C(=O)N3CCOCC3)ccc21 [Compound C1] | 7.10 |
| NC/C(=C\F)Cn1cc2c(n1)CCN(C1CC1)C2=O [Compound A1] | 7.42 |

Here is another compound to look at.
In: Request the reported pIC50 associated with NC/C(=C\F)Cn1ncc2c1CCN(C1CC1)C2=O [Compound A2 hydrochloride]
Out: 7.14
